# ASSAY: in vivo
# Parameters: species or system mice
# CONDITION LABEL: male, NODSCID 1L2RγKO, mouse, iv, total radioactivity, Brain uptake
MEASURED PARAMETER: tissue uptake at 4 h (%ID/g)
Reply numerically in %ID/g, unit not repeated.

Query :: Form field: reported tissue uptake at 4 h of COc1ccc(CCCC(=O)NCC(=O)N[C@@H](CCCCNC(=O)CN2CCN(CC(=O)O)CCN(CC(=O)O)CCN(CC(=O)O)CC2)C(=O)NC[C@H]2CC[C@H](C(=O)N[C@@H](Cc3c4ccccc4cc4ccccc34)C(=O)NCCCC[C@H](NC(=O)N[C@@H](CCCC(=O)O)C(=O)O)C(=O)O)CC2)cc1 [177Lu-HTK03170, metal not drawn]
Result :: 0.13

Query :: What value of tissue uptake at 4 h has been reported for the following compound? O=C(O)CCC[C@H](NC(=O)N[C@@H](CCCCNC(=O)[C@H](Cc1c2ccccc2cc2ccccc12)NC(=O)[C@H]1CC[C@H](CNC(=O)[C@H](CCCCNC(=O)CN2CCN(CC(=O)O)CCN(CC(=O)O)CCN(CC(=O)O)CC2)NC(=O)CNC(=O)CCCc2ccc(Cl)cc2)CC1)C(=O)O)C(=O)O [177Lu-HTK03153, metal not drawn]
Result :: 0.27

The measured values listed here are drawn from patent US11504441B2.
